Test name: Scavenging activity against (+/-)-(E)-methyl-2-[(E)-hydroxyimino]-5-nitro-6-methoxy-3-hexemide-induced NO generation in human Chang liver cells
Format: functional
Binary label based on Ratio with cut-off 2: below gives 1 (yes), not below gives 0 (no).

Reference set, count: 2
Compound	Category label
COc1c2ccoc2c(OC)c2oc(=O)ccc12	1 (yes)
CC1(C)CCc2c(ccc(C(=O)/C=C/c3ccc(O)cc3)c2O)O1	1 (yes)

### Prompt Bench note: check whether `COc1ccc(C(=O)/C=C/c2ccc(O)cc2)c2c1CCC(C)(C)O2` shows Ratio below 2
### Response 1 (yes)

### Prompt Also, `CC(C)=CCC/C(C)=C/Cc1c(O)cc(O)c2c1O[C@H](c1ccc(O)cc1)CC2=O` please.
### Response 0 (no)

### Prompt Also, `COc1cc(O)c2c(c1CC=C(C)C)O[C@H](c1ccc(O)cc1)CC2=O` please.
### Response 0 (no)

### Prompt Also, `CC1(C)N([O])C(c2ccc(C(=O)O)cc2)=[N+]([O-])C1(C)C` please.
### Response 0 (no)

### Prompt Also, COc1ccc(C(=O)CCc2ccc(O)cc2)c2c1CCC(C)(C)O2 [DEOXYDIHYDROXANTHOANGELOL H] please.
### Response 1 (yes)

---

Test name: Cytotoxicity against human Raji cells assessed as cell viability at 1000 molar ratio
Type: cell-based
Measurement setup: read-out: Activity
Assay readout: viability at 1000 molar ratio (%)
Provide the reading as a plain figure in %.

Molecule	Assay readout	Reading unit	Number
CC(C)=CCCC(C)(O)CCc1c(O)ccc(C(=O)/C=C/c2ccc(O)cc2)c1O (centres undefined)	viability at 1000 molar ratio	%	70
CC1=C(/C=C/C(C)=C/C=C/C(C)=C/C(=O)O)C(C)(C)CCC1	viability at 1000 molar ratio	%	60
COc1ccc(C(=O)/C=C/c2ccc(O)cc2)c2c1CCC(C)(C)O2	viability at 1000 molar ratio	%	60
CC(C)=CCc1c(O)ccc2ccc(=O)oc12	viability at 1000 molar ratio	%	70
CC(C)=CCC/C(C)=C/Cc1c(O)cc(O)c2c1O[C@H](c1ccc(O)cc1)CC2=O	viability at 1000 molar ratio	%	70
COc1ccc(C(=O)CCc2ccc(O)cc2)c2c1CCC(C)(C)O2 [DEOXYDIHYDROXANTHOANGELOL H]	viability at 1000 molar ratio	%	60
COc1c2ccoc2c(OC)c2oc(=O)ccc12	viability at 1000 molar ratio	%	60
COc1c2occc2cc2ccc(=O)oc12	viability at 1000 molar ratio	%	60
COc1cc(O)c2c(c1CC=C(C)C)O[C@H](c1ccc(O)cc1)CC2=O	viability at 1000 molar ratio	%	70
CC(C)=CCCC1(C)CCc2c(O)ccc(C(=O)/C=C/c3ccc(O)cc3)c2O1 (centres undefined)	viability at 1000 molar ratio	%	70

### Prompt Would you kindly share the measured viability at 1000 molar ratio for `C=C[C@@H](O)C#CC#C[C@@H](O)/C=C\CCCCCCCCOC(C)=O` ?
### Response 60

### Prompt Also, `CC(C)=CCc1c(O)ccc(C(=O)/C=C/c2ccc(O)cc2)c1O` please.
### Response 60

### Prompt Also, `CC1(C)CCc2c(ccc(C(=O)/C=C/c3ccc(O)cc3)c2O)O1` please.
### Response 60

Recorded values, source ChEMBL document CHEMBL1157219.
